Target: RNR (RNR1:RNR2 1:1) (Homo sapiens)
Sequence (P23921 1-792): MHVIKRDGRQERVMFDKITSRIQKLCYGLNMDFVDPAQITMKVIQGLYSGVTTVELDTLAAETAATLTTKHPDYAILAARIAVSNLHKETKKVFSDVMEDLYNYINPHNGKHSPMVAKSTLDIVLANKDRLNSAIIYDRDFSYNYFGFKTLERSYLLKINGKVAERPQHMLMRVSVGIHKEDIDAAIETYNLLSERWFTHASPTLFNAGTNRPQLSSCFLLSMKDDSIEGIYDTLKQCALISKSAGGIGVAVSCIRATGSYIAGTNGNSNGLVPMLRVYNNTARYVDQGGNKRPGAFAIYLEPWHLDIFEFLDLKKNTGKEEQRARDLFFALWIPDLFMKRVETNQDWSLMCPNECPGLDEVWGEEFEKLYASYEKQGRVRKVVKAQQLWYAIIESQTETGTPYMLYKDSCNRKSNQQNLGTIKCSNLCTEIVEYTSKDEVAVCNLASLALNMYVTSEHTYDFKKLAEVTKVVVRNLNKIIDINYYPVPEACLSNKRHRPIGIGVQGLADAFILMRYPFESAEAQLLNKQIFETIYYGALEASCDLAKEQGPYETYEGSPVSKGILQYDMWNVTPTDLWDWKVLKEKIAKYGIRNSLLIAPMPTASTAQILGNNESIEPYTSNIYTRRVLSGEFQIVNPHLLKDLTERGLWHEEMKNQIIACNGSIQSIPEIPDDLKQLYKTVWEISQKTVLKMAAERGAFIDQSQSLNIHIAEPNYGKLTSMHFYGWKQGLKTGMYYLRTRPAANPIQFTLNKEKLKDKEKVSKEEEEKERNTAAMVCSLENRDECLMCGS
pIC50: −log10 of the molar value.
Please provide measured pIC50 for the entries that follow.

Query CNC(=O)CC1CCN(S(=O)(=O)N[C@H](c2n[nH]c(=O)o2)C(C)c2c(F)ccc(C)c2C)CC1 (stereo partly drawn) on RNR (RNR1:RNR2 1:1) (Homo sapiens); pIC50 returned: 4.00 to 5.00

// returns pIC50 for Cc1ccc(F)c(C(C)[C@H](NS(=O)(=O)N2CCC(NC(=O)C(C)(C)C)CC2)c2n[nH]c(=O)o2)c1C (stereo partly drawn) with RNR (RNR1:RNR2 1:1) (Homo sapiens); value = 5.00 to 6.00

Note to self: pIC50 of `CC(=O)NC1CCN(S(=O)(=O)N[C@H](c2n[nH]c(=O)o2)[C@@H](C)c2c(F)ccc(C)c2C)CC1` with RNR (RNR1:RNR2 1:1) (Homo sapiens) was 5.00 to 6.00

// pIC50 (RNR (RNR1:RNR2 1:1) (Homo sapiens)) for `Cc1ccc(F)c([C@@H](C)[C@H](NS(=O)(=O)N2CCC[C@@](C)(O)C2)c2n[nH]c(=O)o2)c1C` = 4.00 to 5.00

Field pIC50 (system: RNR (RNR1:RNR2 1:1) (Homo sapiens)) for entry `COC1CCN(S(=O)(=O)N[C@H](c2n[nH]c(=O)o2)[C@@H](C)c2c(F)ccc(C)c2C)CC1` = 5.00 to 6.00

The value of pIC50 recorded for COCC1CCCN(S(=O)(=O)N[C@H](c2n[nH]c(=O)o2)[C@@H](C)c2c(F)ccc(C)c2C)C1 (stereo partly drawn) when tested on RNR (RNR1:RNR2 1:1) (Homo sapiens) reads 5.00 to 6.00

Noted pIC50 for `Cc1ccc(F)c([C@H](C)[C@H](NS(=O)(=O)N2CCC3(CCO3)CC2)c2n[nH]c(=O)o2)c1C` , tested on RNR (RNR1:RNR2 1:1) (Homo sapiens): 4.00 to 5.00

Hey, RNR (RNR1:RNR2 1:1) (Homo sapiens) data for `Cc1ccc(F)c([C@@H](C)[C@H](NS(=O)(=O)N2C3CCC2CC(F)(F)C3)c2n[nH]c(=O)o2)c1C` : pIC50 came out at 6.00 to 7.00

Cc1ccc(F)c(C(C)[C@H](NS(=O)(=O)N2CCC(C#N)CC2)c2n[nH]c(=O)o2)c1C (stereo partly drawn) tested on RNR (RNR1:RNR2 1:1) (Homo sapiens) gave pIC50: 6.00 to 7.00

The molecule Cc1ccc(F)c(C(C)[C@H](NS(=O)(=O)N2CCC(C(=O)N(C)C)CC2)c2n[nH]c(=O)o2)c1C (stereo partly drawn) , when measured on RNR (RNR1:RNR2 1:1) (Homo sapiens), yielded pIC50 of 5.00 to 6.00

Reading of pIC50 for `Cc1ccc(F)c([C@H](C)[C@H](NS(=O)(=O)N2CCC(CCl)CC2)c2n[nH]c(=O)o2)c1C` with RNR (RNR1:RNR2 1:1) (Homo sapiens): 4.00 to 5.00

Test item `Cc1ccc(F)c([C@@H](C)[C@H](NS(=O)(=O)N2CCC(C(F)F)CC2)c2n[nH]c(=O)o2)c1C` ; RNR (RNR1:RNR2 1:1) (Homo sapiens); reported pIC50 was 5.00 to 6.00

Considering `Cc1ccc(F)c([C@@H](C)[C@H](NS(=O)(=O)N2CCC3(CCCC3)CC2)c2n[nH]c(=O)o2)c1C` , its pIC50 with RNR (RNR1:RNR2 1:1) (Homo sapiens) was recorded as 6.00 to 7.00

Kindly note: RNR (RNR1:RNR2 1:1) (Homo sapiens), Cc1ccc(F)c(C(C)[C@H](NS(=O)(=O)N2CCC(CN3CCCC3=O)CC2)c2n[nH]c(=O)o2)c1C (stereo partly drawn) , pIC50 value reported: 6.00 to 7.00

Sample Cc1ccc(F)c([C@@H](C)[C@H](NS(=O)(=O)N2CCCCC2c2ccccc2)c2n[nH]c(=O)o2)c1C (stereo partly drawn) , system: RNR (RNR1:RNR2 1:1) (Homo sapiens). Its pIC50 is 5.00 to 6.00
